Tested on: B16-F10
Test: cells
Settings: Mus musculus
Description: Antiproliferative activity against mouse B16-F10 cells
Endpoint Label: IC50

// known answers, use as guide
• Cc1ccnc(NCc2cc(F)c(N3CC(=O)NS3(=O)=O)c3[nH]ncc23)c1 = 0.35 µM
• O=C1CN(c2c(O)cc(NC(=O)NC3CCCCC3)cc2F)S(=O)(=O)N1 = < 5 µM
• CC1(C)CCC(NCc2cc(O)c(N3CC(=O)NS3(=O)=O)c(F)c2)CC1 = 81 µM

// each listed compound needs a value for IC50
1. CC1Cc2c(cc(O)c(N3CC(=O)NS3(=O)=O)c2F)CCN1 (stereo not given)
2. O=C1CN(c2c(O)cc(NC3=NCCCN3)cc2F)S(=O)(=O)N1
3. CC(C)Cc1cnc(Nc2cc(O)c(N3CC(=O)NS3(=O)=O)c(F)c2)nc1O
4. CCN[C@@H]1CCc2cc(O)c(N3CC(=O)NS3(=O)=O)c(F)c2CC1
5. Cc1ccc(NCc2cc(O)c(N3CC(=O)NS3(=O)=O)c(F)c2)nn1
6. O=C1CN(c2c(O)cc3c(c2F)C[C@H](NCCC2CCCC2)CC3)S(=O)(=O)N1

output:
1: 0.27 µM; 2: < 5 µM; 3: 5 µM; 4: 54 µM; 5: 0.63 µM; 6: < 0.05 µM

// each listed compound needs a value for IC50
1. O=C1CN(c2c(O)cc3c(c2F)C[C@H](NCCC(F)F)CC3)S(=O)(=O)N1
2. Cc1cccc(NCc2cc(F)c(N3CC(=O)NS3(=O)=O)c3[nH]ncc23)n1
3. O=C1CN(c2c(O)cc3c(c2F)C[C@H](NCCC2CCC2)CC3)S(=O)(=O)N1
4. O=C1CN(c2c(O)cc3c(c2F)CCNCC3)S(=O)(=O)N1
5. COc1cc(C)nc(NCc2cc(O)c(N3CC(=O)NS3(=O)=O)c(F)c2)c1
6. O=C1CN(c2c(O)cc(CNc3ncc[nH]3)cc2F)S(=O)(=O)N1

output:
1: 1.5 µM; 2: > 15 µM; 3: < 1 µM; 4: 0.35 µM; 5: 0.05 µM; 6: 0.16 µM

====

Target: Tyrosine-protein phosphatase non-receptor type 2 (Homo sapiens, UniProt P17706)
Endpoint Label: IC50
Please answer using a numeric value trailed by its unit.

input: Tell me the measured IC50 of CCc1ccc(C(=O)NCCCC[C@H](NC(=O)[C@H](Cc2ccc(C(F)(F)P(=O)(O)O)cc2)NC(=O)[C@@H](CC(=O)COC2CC(C)CCC2C(C)C)Cc2ccccc2)C(N)=O)cc1 (stereo partly specified) , please.
output: 9.2 nM

====

Field: IC50. Provide a value for each of the molecules that follow.
Target: Tyrosine-protein phosphatase non-receptor type 2 (Homo sapiens, UniProt P17706)
Sequence (P17706 whole entry): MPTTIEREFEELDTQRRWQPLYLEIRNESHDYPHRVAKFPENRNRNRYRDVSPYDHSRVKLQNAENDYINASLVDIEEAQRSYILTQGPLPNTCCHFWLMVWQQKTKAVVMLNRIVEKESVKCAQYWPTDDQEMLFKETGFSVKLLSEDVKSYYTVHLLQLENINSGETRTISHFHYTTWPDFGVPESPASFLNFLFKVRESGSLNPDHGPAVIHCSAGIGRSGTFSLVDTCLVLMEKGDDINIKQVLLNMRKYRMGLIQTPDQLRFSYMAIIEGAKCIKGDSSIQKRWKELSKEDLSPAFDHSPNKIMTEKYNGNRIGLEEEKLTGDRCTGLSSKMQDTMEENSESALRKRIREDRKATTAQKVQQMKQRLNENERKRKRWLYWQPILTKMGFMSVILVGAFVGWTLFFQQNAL

// known answers, use as guide
- CCN1CN(Cc2ccc(F)cc2)C(=O)S1: 280 nM
- CC(C)CCNC(=O)Nc1cc(O)c(N2CC(=O)NS2(=O)=O)c(F)c1: 5 nM

// each listed molecule needs a value for IC50
1. CN(Cc1cc(O)c(N2CC(=O)NS2(=O)=O)c(F)c1)C1CCC(C)(C)CC1
2. CC(C)CCn1cc(-c2ccc(O)c(N3CC(=O)NS3(=O)=O)c2F)cn1
3. O=C1SN(CCN2CCN(Cc3ccc4c(c3)OCO4)CC2)CN1Cc1ccccc1
4. CC1(C)CCC(NCc2ccc(O)c(N3CC(=O)NS3(=O)=O)c2F)CC1
5. CC(C)CCc1ccc2ccc(N3CC(=O)NS3(=O)=O)cc2n1
6. CC(C)CCOc1ccc2cc(O)c(N3CC(=O)NS3(=O)=O)c(F)c2n1
7. CC(C)N1CCN(CCN2CN(Cc3ccccc3)C(=O)S2)CC1

output:
1. 50 nM
2. < 1000 nM
3. 5290 nM
4. 10000 nM
5. > 10000 nM
6. < 1000 nM
7. 7100 nM

====

Target: Tyrosine-protein phosphatase non-receptor type 2 (Homo sapiens)
Endpoint Label: pIC50
Numbers only, as −log10 of the molar value.

input: Tell me the measured pIC50 of C=C(C)C#COc1cc(C(N)=O)cc2c(Br)c(C(F)(F)P(=O)(O)O)sc12 , please.
output: 7.86

====

Molecular target: Tyrosine-protein phosphatase non-receptor type 2 (Homo sapiens)
Endpoint Label: IC50 (µM)
One number for each entry, in µM.

// known answers, use as guide
* [2H]ON1C(=O)c2cccc3c([N+](=O)[O-])ccc(c23)C1=O | 198
* O=c1c2ccccc2nnn1O | 369
* CCN(CN=O)c1ccc(O)c(O)c1 | 6.5

With those in mind, consider the next molecule.
input: Give the reported IC50 for O=C1/C(=N\Nc2ccc(S(=O)(=O)O)cc2)C(c2ccc([N+](=O)[O-])cc2)=NN1c1ccccc1 (system: Tyrosine-protein phosphatase non-receptor type 2 (Homo sapiens)).
output: 3.79

====

Target: Tyrosine-protein phosphatase non-receptor type 2 (Homo sapiens)
Endpoint Label: pIC50
Numbers only, as −log10 of the molar value.

• Cc1cccc(NCc2cc(F)c(N3CC(=O)NS3(=O)=O)c3[nH]ncc23)n1 = 6.70
• Cc1cnnc(NCc2cc(O)c(N3CC(=O)NS3(=O)=O)c(F)c2)c1 = 8.40
• Cn1ccnc1NCc1cc(O)c(N2CC(=O)NS2(=O)=O)c(F)c1 = 8.22

With those in mind, consider the next compound.
input: Give the reported pIC50 for O=C1CN(c2c(O)cc(CNc3ncc[nH]3)cc2F)S(=O)(=O)N1 (system: Tyrosine-protein phosphatase non-receptor type 2 (Homo sapiens)).
output: 8.00

====

Biological target: Tyrosine-protein phosphatase non-receptor type 1 (Homo sapiens, UniProt P18031)
Sequence (P18031 whole entry): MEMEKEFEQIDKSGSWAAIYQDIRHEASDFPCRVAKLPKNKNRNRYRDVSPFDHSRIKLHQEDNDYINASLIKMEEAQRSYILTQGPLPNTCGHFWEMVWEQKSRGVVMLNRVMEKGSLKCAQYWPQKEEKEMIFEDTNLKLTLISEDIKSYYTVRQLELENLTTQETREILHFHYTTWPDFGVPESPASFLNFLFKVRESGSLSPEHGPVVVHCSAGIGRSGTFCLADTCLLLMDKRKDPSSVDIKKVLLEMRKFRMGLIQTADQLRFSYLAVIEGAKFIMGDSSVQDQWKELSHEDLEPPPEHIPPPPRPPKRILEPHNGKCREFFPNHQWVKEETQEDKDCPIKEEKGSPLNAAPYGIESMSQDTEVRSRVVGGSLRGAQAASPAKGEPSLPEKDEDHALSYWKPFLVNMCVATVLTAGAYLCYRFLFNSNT
Field: pIC50. Provide a value for each of the compounds that follow.
One number for each entry, as −log10 of the molar value.

// known answers, use as guide
- O=c1c2ccccc2nnn1O: 3.33
- [2H]ON1C(=O)c2cccc3c([N+](=O)[O-])ccc(c23)C1=O: 3.95

// each listed compound needs a value for pIC50
1. C=C(C)[C@@H]1CC[C@@H](C)[C@@H]2CCC(C)=C[C@@H]21
2. COc1ccc(-c2ccc[nH]2)cc1N1CC(=O)NS1(=O)=O
3. O=C1CN(c2c(O)cc3ccccc3c2F)S(=O)(=O)N1
4. O=P(O)(O)C(F)(F)c1ccc(CC(Cc2ccc(-c3ccccc3)cc2)(c2ccccc2)n2nnc3ccccc32)cc1 (configuration not stated)
5. Cc1c(O[C@@H]2O[C@H](CO[C@@H]3OC[C@@H](O)[C@H](O)[C@H]3O)[C@@H](O)[C@H](O)[C@H]2O)cc2c(c1O)C(=O)c1ccc(O)c(O)c1C2=O

output:
[4.57, 7.10, 8.08, 7.40, 4.11]

====

Biological target: Protein cereblon/Tyrosine-protein phosphatase non-receptor type 1 (Homo sapiens, UniProt P18031+Q96SW2)
Sequence (Q96SW2 whole entry, one chain of several): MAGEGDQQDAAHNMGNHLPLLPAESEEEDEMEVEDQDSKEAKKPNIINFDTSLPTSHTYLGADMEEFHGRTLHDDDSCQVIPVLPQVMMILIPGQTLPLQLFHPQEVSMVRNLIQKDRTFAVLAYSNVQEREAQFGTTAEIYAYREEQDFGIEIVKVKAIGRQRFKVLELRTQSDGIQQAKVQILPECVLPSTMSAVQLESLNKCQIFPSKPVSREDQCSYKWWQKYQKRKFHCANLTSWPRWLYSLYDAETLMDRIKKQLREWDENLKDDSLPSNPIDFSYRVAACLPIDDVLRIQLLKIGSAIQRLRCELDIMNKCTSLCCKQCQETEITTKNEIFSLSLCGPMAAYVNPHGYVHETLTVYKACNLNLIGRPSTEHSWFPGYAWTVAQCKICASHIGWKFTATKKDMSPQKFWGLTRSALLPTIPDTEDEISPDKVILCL
Conditions: hek293t
Description: PROTAC activity at PTP1B/CRBN in HEK293T cells assessed as maximal protein degradation at 10 uM measured for 48 hrs by Western blot analysis relative to control
Field: DC50. Provide a value for each of the molecules that follow.
Numbers only, in µM.

// known answers, use as guide
• Cc1ncsc1-c1ccc([C@H](C)NC(=O)[C@@H]2C[C@@H](O)CN2C(=O)[C@@H](NC(=O)CCCCCCCCCCNC(=O)Cn2cc(-c3ccc4cc(O)c(N5CC(=O)NS5(=O)=O)c(F)c4c3)cn2)C(C)(C)C)cc1 = 2
• Cc1ncsc1-c1ccc([C@H](C)NC(=O)[C@@H]2C[C@@H](O)CN2C(=O)[C@@H](NC(=O)CCCCCCNC(=O)Cn2cc(-c3ccc4cc(O)c(N5CC(=O)NS5(=O)=O)c(F)c4c3)cn2)C(C)(C)C)cc1 = 0.142
• Cc1ncsc1-c1ccc([C@H](C)NC(=O)[C@@H]2C[C@@H](O)CN2C(=O)[C@@H](NC(=O)CCCCCCCNC(=O)Cn2cc(-c3ccc4cc(O)c(N5CC(=O)NS5(=O)=O)c(F)c4c3)cn2)C(C)(C)C)cc1 = 0.758

With those in mind, consider the next molecule.
input: Tell me the measured DC50 of Cc1ncsc1-c1ccc([C@H](C)NC(=O)[C@@H]2C[C@@H](O)CN2C(=O)[C@@H](NC(=O)CCCCCNC(=O)Cn2cc(-c3ccc4cc(O)c(N5CC(=O)NS5(=O)=O)c(F)c4c3)cn2)C(C)(C)C)cc1 , please.
output: 13.1
